Test: yeast display, Sf9 membrane polyspecificity reagent, FACS + sequencing; frameworks hold sequencing errors
Measurement type: polyreactivity (PSR sort gate)

>>> assay_result("QVQLLESGGGLVQAGGSLRLSCAASGYNFGNYAMGWYRQAPGKERELVAAITSRGGRTYYADSVKGRFTISRDNAKNSFYLQMNSLIPVDTGVYYCYRAVTTKDGYWGQCTQVTVSS")
"high polyreactivity"
>>> assay_result("QFQLVESGGGLVQAGGSLRLSCAASGIIFNRNVMRWYRQAPAKERELVAAITWGGGRTYYADSVKGRFTISRDNAKNTVYLQMNSLIPVDTAVYFCAARSRGSSRFDYWGQGTQVTVSS")
"high polyreactivity"
>>> assay_result("QVQLVESVGGLVQAGGSLRLSCAASGFIVSTYAMGWYRQAPGKERELVAAITNSGGSTYYADSVKGRFTISRDNAKNTVYLQMNSLKPEDTAVYYCARRRSYRDNYWGQGTQVTVSS")
"high polyreactivity"

###

Experiment: yeast display, Sf9 membrane polyspecificity reagent, FACS + sequencing; frameworks hold sequencing errors
Measurement type: polyreactivity (PSR sort gate)

>>> assay_result("QVQLVESGGGLVQAGGSLRLSCAASGRTFGSYAMGWYRQAPGKERELVAAITASGVRTYYADSVKGRFTISRDNAKNTVYLQMNSLKPEDTAVYYCNARRLSTVQYDYWGQGTQVTVSS")
"high polyreactivity"
>>> assay_result("QVHLVESGGGLVQAGGSLRLSCASTGFTFSRNTMGWYRQPPGKERELVARISASGGSTYYADSVKGRFTISRDNAKNTVYLQMNSLKPEDTAVYYCAAEGFYRSSPVRTYIGYDYWGQGSQVTVSS")
"high polyreactivity"
>>> assay_result("QVQLVESGGGLVQAGGSLRLSCAASGRTFGVYAMGWYRQAPGKERELVARIRYSGGTTRYADSVKGRFTISRDNAKITVYFQMNSLKPEDTAVYYCAARSGYFRSRFDYWGQGTQVTVSS")
"high polyreactivity"
>>> assay_result("QVQLVESGGGLVQAGGSLRLSCAASGFIFDYYAMGWYRQAPGKERELVAAITRDGGGTYYADSVKGRFTISRDNAKNTVYLQMNSLKPEDTAVYYCAARRAVRLYYWGQGTQVTVSS")
"high polyreactivity"
>>> assay_result("QVQLVESGGGLVQEGGSLRLSCAASGFTFRQYAMGRSRQAPGKEMELVAAITKTGGSTYYADSVKGRFTISRDHAKNTVYLQMNSLKPEDPAVYYCNAARETRPRDYYWGQGTQVTVSS")
"low polyreactivity"
>>> assay_result("QVQLVESGGGLVQAGGSLRLSCAASGITLGRYAMGWYRQAPGKERELVAAISWSGGTTYYADSVKGRFTISRDTAKNTVDLQMNSLKPEDTAGYYCTKESPYRQWGWSYYYWGQGTQVTVSS")
"high polyreactivity"
>>> assay_result("QVQLVESGGGLVQAGGSLRLSCAASGHTFRFYTMGWSRQAPGKEREFVAAIRRRTGSTYYADSVKGRFTISRDNAKNTVYLQMNSLKPEDTAVYYCNAVGDARYNYWGQGTQVTVSS")
"high polyreactivity"
>>> assay_result("QVQLVESGGGLVQAGGSLRLSCAASGFTFGGYAMGWYRQAPGKERGLVAAISGSGGRTYYADSVKGRFTISRDNAKNTVYLQMNSLKPEDTAVYYCAAETVTRSFYSEYDYWGQGTQVTVSS")
"low polyreactivity"
>>> assay_result("QVQLVESGGGLVQAGGSLRLSCAASGRTFKYYAMGWYRQAPGKERELVASISNGGNTNYADSVKGRFTISRDNAKNTVYLQMNSLKPEDTAVYYCAAGYVVATRYDYWGQGTQVTVSS")
"high polyreactivity"
>>> assay_result("QVQLVESGGGLVQAGGSLRLSCAASGRIVKFYDMGWYRQAPGKEREFVAAISRRGSSTYYADSVKGRFTISRDNAKNTVYLQMNSLKPEDTAVYYCAADWTFGAIGYYYWGHGTQVTVSS")
"high polyreactivity"
>>> assay_result("QVQLVESVGCLVQAGGSLRLSCPASGFNFPGYALGWYRQAPGKERELVAAITGSGGRTYYADSVKGRFTISRDNAKNTVYLQMNSLKQEDTAVYYCLARSYYNWNDYWGQGTQVTVSS")
"high polyreactivity"

###

Test: yeast display, Sf9 membrane polyspecificity reagent, FACS + sequencing; frameworks hold sequencing errors
Measurement type: polyreactivity (PSR sort gate)

>>> assay_result("QVQLVESGGGLVQAGGTLRISCAASGRIYAGYVMGWYRQAPRKERELVAAISGSGAYTYYADSVKGRFTISRDYAKNTVYLQMNRLKPEDSAVYYCAADKPGIFSRFDYWGQGTQVSVSS")
"low polyreactivity"
>>> assay_result("QVLLVESGGGLVQAAGSLRLSCAASGSISIGYTMGWYIQAPGKERELVATISWSGGNTYYADSVKWRFTISRDNAKNTVYLQMNRLKPEDTAVYYCAAKSSTRGDYWGQGTQVTVSS")
"low polyreactivity"
>>> assay_result("QVQLVESGGGLVQAGGSLRLSCAASGRIFGGYTMGWYRQAHGKERELFAAITGSGGRTYYAYSVKGRFTISRDNAKNTVYLQMNSLKPEDTAVYYCNTVYRYRYYWGEGTQVTVSS")
"high polyreactivity"
>>> assay_result("QVQLVESGGGLVQAGGSLRLSCAASGITRGSNAMGWYRQAPGTERELVAAITSGSSTYYADSVKGRFTISRDNAKNTVYLQMNSLKPEDTAVYYCAAEWWDVIAPYEYWGQGTQVTVSS")
"low polyreactivity"
>>> assay_result("QVQLVDSGGGLVQAGGSLRLSCPASGFNFYRNAMGSYRQAPGKERELVAAISGSGGRTYYADSVKGRFTISRDNAKNTVYLQMNSLKPEDTAVYYCATDYAYSPYRYWTRYDYWGQGTQVTVSS")
"high polyreactivity"

###

Experiment: yeast display, Sf9 membrane polyspecificity reagent, FACS + sequencing; frameworks hold sequencing errors
Measurement type: polyreactivity (PSR sort gate)

>>> assay_result("QVQLVESGGGLVQARGSLSLSCAASGSIFYYNAIGWYRQPPGKERELVATITSAVSTNYADSVKGRFTISRANAKNPVYLQMNSLKPEDTAVYYCAADDYQVQYDYWGQGTQVTVSS")
"low polyreactivity"
>>> assay_result("QVQLEESGGGLVQAGGSLRLSCAASGRIFTWYTMGWYRQAPGKEREFVAAITRSGTSTYYADSVKGRFTISRDNAKNTVYLQMNSLKPEDTAVYYCAAGKPRSKYWYDYWGQGTQVTVSS")
"high polyreactivity"
>>> assay_result("QVQLVESGGGLVQAGGSLRLSCAASGRTFTRYAMGWYRQAPGKERELVASISNGGNTYYADSVKGRFTISRDYAKNTVYLQMNSLKPEDTAVYYCAAKWKNSRPDWRGYWGQGTQVTVSS")
"high polyreactivity"
>>> assay_result("QVQLVESGGGLVQAGGSLRLSCAASGLIFYRYTMGWYRQAPGKERELVAAISRRGGSTFYADSVKGRFTISRDNAKNTVYLQMNSLKPEDTAVYYCAAASWYRRKIYYSWGQGTQVTVSS")
"high polyreactivity"
>>> assay_result("QVQLVESGGGLVQAGGSLRLSCAASGGTFSYNAMGWYRQAPGKERELVAAISWSGTRTYYADSVKGRFTISRDNAKNTVYLQMNSLKPEDTAVYYCNKTPPNRGRYDYCGQGTQVTVSS")
"low polyreactivity"

###

Assay: yeast display, Sf9 membrane polyspecificity reagent, FACS + sequencing; frameworks hold sequencing errors
Measurement type: polyreactivity (PSR sort gate)

>>> assay_result("QVQLEESVGGLVQAGGSLRLSCAASGSTFVYYGMGWYRQAPGKERELVAAITDIGDSTNYADSVKGRFTISRDNAKNTVYLQMNSLKPDDTAVYYCAASGRSVPYYGSPRNDYWGQGTQVTVSS")
"low polyreactivity"
>>> assay_result("QVQLVESGGGLVQAGGSLRLTCAASGSIFTFYAMGWYRQAPGKERELVADISFSDVSTYYADSVKGRFTISRDNAKNTVYLQMNSLKPEDTAVYYCAARPYVVSQYFDGVEFYYWGQGTQVTVSS")
"low polyreactivity"
>>> assay_result("QVQLVESGGGLVQAGGSLRLSCAASGSTLTEYAMGWYRQAPGKEREFVAAISRSAGSTYYADSVKGRFTISRDNAKNTVYLQMNSLKPEETAVYYCAVAVRVGFDYFSGQADIYYYWGQGTQVTVSS")
"low polyreactivity"
>>> assay_result("QVQLVESGGGLVQAGGSLRLSCAASGSIFRSYAMGWYRQAPGKERELVASISRRGGSTYYADSVKGRFTISRDNAKNSVYLQMNSLKPEDTAVYYCAAVRYNSRVSTTPSEMYYWGQGTQVTVSS")
"low polyreactivity"
>>> assay_result("QVQLVESGGGLVQAGGSLRLSCAASGFIFQPYALGWYRQAPGKERELDASITLRGGSTYYADSVKGRFTISRDNAKNTVYLQMNSLKPEDTAVYYCAARIYQYWGGHYDYWGQGTQVTVSS")
"high polyreactivity"
>>> assay_result("QVQLVESGGGLVQAGGSLRLSCAASGRIFYEYAMGWYRQAPGKDRELVAAISNSGGSTYYAHSVKGRFTISRDNAKNTVYLQMNSLQPEDTAVYYCAATVRLPNGVRYGYWGQGTQVTGSS")
"high polyreactivity"
>>> assay_result("QVPLVESGGGVVQAGGSLRLSCAASGSIFNVNAMGWYRPAPGKERELVAAISSGGDTYYADSLKGRFTISRDNAKNTVYLQMNSLKPEDTAVYYCAAEIYTAYYEFDYWGQGTQVTVSS")
"low polyreactivity"
>>> assay_result("QVQLVESGGGLVQAGGSHRLSCAASGSTFFSYAMGWYRQAPGKERELVAAITSNGGTTHYADSVKGRFTISRDNAKNTVYLQMNSLKPEDTAVYYCAKAQGHVRGSRGLQGGRYDYWGQGTQVTVSS")
"low polyreactivity"
>>> assay_result("QVQLVESGGGLVQAGGSLRLSCAASGLTIWKYTMGWYRQAPGKERELVAAISISGTNTYYADSVKGRFTISRDNAKNTVYLQMNSLKPEDTAVYYCAAVRGYPPTNYYYWGQGTQVSVSS")
"high polyreactivity"
>>> assay_result("QVQLVESGGGLVQAGGSLRLSCAASGNTFAYNVMGWYRQAPGKERELVAAISRSGGSTYYADSVKGRFTISRDNAKNTVYLQMNSLKPEDTAVYYCAAVGRRVRPEGSYNRWGHDYWGQGTQVTVSS")
"high polyreactivity"
>>> assay_result("QVQLVDSGGGLVQAGGSLRLSCAASGFIFPLYTMGWSRQAPGKERELVAAITGSGGSTYYADSVKGRFTISRDNEKNTVYLQMNSLKPEDSAVYYCAKDYTYGMDWGQGTQVTVSS")
"low polyreactivity"
>>> assay_result("QVQLVESGGGLVQAGGSLRLSCAASGRTFTVYGMGWYRQAPGKEREFVATISRRGGRTYYADSVKGRFTISRDNAKNTVYLHMNSLKPEDTAVYYCNADIGTYVRSGGGDFWGQGTQVTVSS")
"low polyreactivity"
>>> assay_result("QVQLVESGGGIVQAGGSLRLSCAASGRIFVRYAMGWYRQAPGKERELVAAISKSGGSTYYADSVKGRFTISRENAKNTVYLQMYSLKPEDTAVYYCNALVRRRPGYIRYDYWGQGTQVTVSS")
"low polyreactivity"
>>> assay_result("QVQLVESGGGLVQAGGSLRLSCAASGSTFGYYAMGWYRQAPGKERELVAAITGSGGCTYYADSVKGRFTISRDNAKNTVYLQMNSLKPEDTAVYYCATPTKFVRDDYWGQGTQVTVSS")
"low polyreactivity"
>>> assay_result("QVQLVESGGGLVQAGGSLRLSCAASGRIFRKYAMGWYRQAPGKERELVAAISGSGGSTYYADSVKGRFTISRDNAKNTVYLQMNSLKPEDTAVYYCAASAGRYSSTLGYYWGQGTQVTVSS")
"high polyreactivity"
>>> assay_result("QVQLVESGGGLVQAGGSLRLSCAASGFIFPTYAMGWYRQAPGKERELVAAISYRGGITSYADSVKGRFTISRDNAKNTVYLQMNSLKPEDTAVYYCAARGAWGYEYWGQGTQVTVSS")
"low polyreactivity"
>>> assay_result("QVQLVESGGGLVQAGGSLRLSCAASGFTFTGYAMGWYRQAPGKERELVAVISSRGGSTYYADSVKGRFTISRDNAKNTVYLQMNSLKPEDTAVYYCAARGSKGFSSPFGYWGQGTQVTVSS")
"high polyreactivity"
>>> assay_result("QVQLVESGGGLVQAGGSLRLSCAASGFTFEYYAMGWSRQAPGKETELVATITWNGGSTYYADSVKGRFTISRDNAKNTVYLQMNSLKPVDTAVYYCAADEQAYYVRRFDYWGQCTQVTVSS")
"low polyreactivity"
>>> assay_result("QVQLVESGGGLVQAGGSLRLSCAASGLTFKYYTMGWYRQAPGKERELVAAISRSGTITYYADSVKGRFTISRDNAKNTVYLQMNSLKPEDTAVYYSNKASTYPSYDYWGHGTQVTVSS")
"high polyreactivity"
>>> assay_result("QVQLVESGGGLVQAGGSLRLSCAASGRIFHRYAMGWYRQAPGKEREFVAAITYSTGTTYYADSVKGRFTISRDNAKNTVYLQMNSLKPEDTAVYYCAKDSRFWHKSWFAYGYDYWGQGTQVTVSS")
"low polyreactivity"
>>> assay_result("QVQLVESGGGLVQAGGSLRLSCAASGRIFNGYAMGWYRQAPGKERELVAAISVSGGSTYYADSVKGRFTISRDNAKNTVYLQMNSLKPEDTAVYYCAARTSSYSFPYAYNYWGQGTQVTVSS")
"high polyreactivity"
